Answer each item with its documented abundance fitness.
B1: Unconventional myosin-Ie, residues 1051 to 1108; numbered along this chain, Q12965 (parent)
chain: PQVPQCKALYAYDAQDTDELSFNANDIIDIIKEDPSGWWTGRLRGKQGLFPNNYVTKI

- Variants of: B1
- method.description: abundance fitness (aPCA) (normalised: wild type 0, dead -1); higher = more abundant; growth selection in yeast, the domain comes from the species named
- measurement.setup: Homo sapiens
Give bare numbers.

Some entries whose results are on file:
What value of measured abundance fitness is listed for PQVPQCKALGAYDAQDTDELSFNANDIIDIIKEDPSGWWTGRLRGKQGLFPNNYVTKI [Y10G] ?
-0.309

Requested field: abundance fitness. Item: PQVPQCKALYAYDAQDTDELSFNANDIIDIIKEDPSGWWTGRRRGKQGLFPNNYVTKI [L43R]
-0.417

Which measured abundance fitness value corresponds to CQVPQCKALYAYDAQDTDELSFNANDIIDIIKEDPSGWWTGRLRGKQGLFPNNYVTKI [P1C] ?
-0.374

Fill in: abundance fitness of PQVPQCKALYAYDAQDTDELSFNANDIIDIIFEDPSGWWTGRLRGKQGLFPNNYVTKI [K32F] is ___
-0.373

Fill in the blank: the reported abundance fitness of PQVPQCKALYAYDAQDTDELSFNANHIIDIIKEDPSGWWTGRLRGKQGLFPNNYVTKI [D26H] is ____.
-0.94

abundance fitness for PQVPQCKAYYAYDAQDTDELSFNANDIIDIIKEDPSGWWTGRLRGKQGLFPNNYVTKI [L9Y] ?
-0.701

I have this variant here, PQVPQCKALYAYDKQDTDELSFNANDIIDIIKEDPSGWWTGRLRGKQGLFPNNYVTKI [A14K] , and I need its recorded abundance fitness.
-0.195

Would you kindly share the measured abundance fitness for PQVPQCKALYAYDAQDTDELSFNKNDIIDIIKEDPSGWWTGRLRGKQGLFPNNYVTKI [A24K] ?
-0.04

Could you share which abundance fitness value was measured for PQVPQCKALYAYDAQDTDELSFNANDIIDIIKEDPSGWWTGRLRGKTGLFPNNYVTKI [Q47T] ?
0.005

Quick check: abundance fitness of PQVPQCKALYAYDAQDADELSFNANDIIDIIKEDPSGWWTGRLRGKQGLFPNNYVTKI [T17A] ?
0.026

Dear colleague, could you send me abundance fitness for each of the items below? Thanks.
1. PQVPQCKALYAYDAQDTDELSFNANDIIDIIKEDPSGWWTGRLRGKQGLFPNNYDTKI [V55D]
2. PQVPQCKALYAYDAQDTDELSFNANDIIDIIKEIPSGWWTGRLRGKQGLFPNNYVTKI [D34I]
3. PQVPQCKALYAYDAQDTDELSFNANDIIDIIKEDPYGWWTGRLRGKQGLFPNNYVTKI [S36Y]
4. PQVPQCKALYAYDAQDTDELSFNANDIIDIIKEDPSRWWTGRLRGKQGLFPNNYVTKI [G37R]
5. PLVPQCKALYAYDAQDTDELSFNANDIIDIIKEDPSGWWTGRLRGKQGLFPNNYVTKI [Q2L]
6. PQVPQCKALYAYDAQDTDELSFNANDIIDIIKEDPSGWWTGRLNGKQGLFPNNYVTKI [R44N]

1: -0.777; 2: -0.939; 3: -0.349; 4: -0.574; 5: -0.106; 6: 0.068

For each of the variants below, state abundance fitness.
1. PQVPQCDALYAYDAQDTDELSFNANDIIDIIKEDPSGWWTGRLRGKQGLFPNNYVTKI [K7D]
2. PQVPQCKALYAYDAQDTFELSFNANDIIDIIKEDPSGWWTGRLRGKQGLFPNNYVTKI [D18F]
3. PQVPQCKALYAMDAQDTDELSFNANDIIDIIKEDPSGWWTGRLRGKQGLFPNNYVTKI [Y12M]
4. PQVPQCKALYAYDAQDTDELSFNANDIIDIIKEDPSGWWTGRLRGKQGHFPNNYVTKI [L49H]
5. PQVPQCKALYAYDAQDTDELSFNANDIIDIIKEDPSGWWTGRLRGKQGLFPNNYWTKI [V55W]
6. PQVPQCKALYAYDAQDTDELSFNANDIIDIIKEDPSGWWTGRLRGLQGLFPNNYVTKI [K46L]

1: -1.02; 2: -0.238; 3: -0.761; 4: -0.317; 5: -0.645; 6: -0.152
